tested on: U2OS; experiment: Multiplex assay against U2OS; assay type: toxicity, cell-based; details: human, 48 h, 10 µM, compound concentration 10 uM, replicate 2
REPORTED_ENDPOINT: Population Apoptotic (%)
The response must be a number in % with no trailing unit.

Example results:
Would you kindly share the measured Population Apoptotic (%) for "CCN1CCN(Cc2ccc(Nc3ncc(F)c(-c4cc(F)c5nc(C)n(C(C)C)c5c4)n3)nc2)CC1.CS(=O)(=O)O" ? 100

Another compound to check: "Cc1ccc(C(=O)Nc2cccc(C(F)(F)F)c2)cc1Nc1nc(-c2cccnc2)nc2c1cnn2C" 100

Another compound to check: CN(C)C(=O)C(CCN1CCC(O)(c2ccc(Cl)cc2)CC1)(c1ccccc1)c1ccccc1.Cl [LOPERAMIDE HYDROCHLORIDE] 100

Another compound to check: "CCCS(=O)(=O)c1nc(NC2CC2)cc(-c2ccc3c(ccn3C3CC(C)(C)NC(C)(C)C3)c2)n1" 80

Another compound to check: "O=C(Cc1ccc(-c2ccc(OCCN3CCOCC3)cc2)cn1)NCc1ccccc1" 70

---
Would you kindly share the measured Population Apoptotic (%) for "COc1cc(N2CCN(C)CC2)ccc1Nc1ncc2c(n1)N(C)c1ccccc1C(=O)N2C" ? 63

Another compound to check: "CCc1cccc(CC)c1NC(=O)c1nn(C)c2c1CCc1cnc(Nc3ccc(C(=O)NC4CCN(C)CC4)cc3OC(F)(F)F)nc1-2" 44

Another compound to check: "Cl.Oc1ccc2c3c1O[C@H]1c4[nH]c5c(c4C[C@@]4(O)[C@@H](C2)N(CC2CC2)CC[C@]314)C[C@@]1(O)[C@H]2Cc3ccc(O)c4c3[C@@]1(CCN2CC1CC1)[C@H]5O4" 60

Another compound to check: "CCOc1cc(C(=O)N2CCC(N3CCN(C)CC3)CC2)ccc1Nc1ncc2c(n1)N(C1CCCC1)c1ccccc1C(=O)N2C" 100

Another compound to check: "Cc1cc(C)c(S(=O)(=O)N(Cc2ccc(-c3cccc(S(C)(=O)=O)c3)cc2)Cc2ccc(C(F)(F)F)o2)c(C)c1" 25

Another compound to check: "COCC(=O)NC/C=C/c1ccc2ncnc(Nc3ccc(Oc4ccc(C)nc4)c(C)c3)c2c1" 45

###

tested on: HEK-293T; experiment: Multiplex assay against HEK293T; assay type: toxicity, cell-based; settings: human, 48 h, 10 µM, compound concentration 10 uM, replicate 2
Consider the cut-off 6%. If the recorded Population Membrane Permeable-Phenotype (%) is strictly smaller, the label is 1; if not, the label is 0.

Is Population Membrane Permeable-Phenotype (%) of "Cl.O=C(c1ccc(Nc2nccc(-c3cc4ccccc4s3)n2)cc1)N1CCC(N2CCCC2)CC1" strictly below 6%? 0

Another compound to check: "Cl.O=c1c2cccn2c2ccccc2n1CCCN1CCC(c2ccc(Cl)cc2)CC1" 1

Another compound to check: CCOC(=O)c1c(C)[nH]c2ccc3c(c12)CN1CCc2cc(OC)ccc2C1O3 (stereo unspecified) 1

---
Is Population Membrane Permeable-Phenotype (%) of "CN1CCN(C(=O)C(C)(C)c2ccc(C(=O)Nc3cn4cc(-c5ccncc5)ccc4n3)cc2)CC1" strictly below 6%? 0

Another compound to check: "Cc1cc(C)c(S(=O)(=O)N(Cc2ccc(-c3cccc(S(C)(=O)=O)c3)cc2)Cc2ccc(C(F)(F)F)o2)c(C)c1" 1

Another compound to check: "Cl.Oc1ccc2c3c1O[C@H]1c4[nH]c5c(c4C[C@@]4(O)[C@@H](C2)N(CC2CC2)CC[C@]314)C[C@@]1(O)[C@H]2Cc3ccc(O)c4c3[C@@]1(CCN2CC1CC1)[C@H]5O4" 1

Another compound to check: "CCn1c(=O)c(-c2ccc(-c3cncs3)cc2Cl)cc2cnc(Nc3ccc(N4CCN(C)CC4)cc3)nc21" 0

Another compound to check: "CCCn1c(=O)c2[nH]c(-c3cnn(Cc4cccc(C(F)(F)F)c4)c3)nc2n(CC)c1=O" 1

Another compound to check: CN1C2CCC1CC(OC(c1ccc(F)cc1)c1ccc(F)cc1)C2.Cl (stereo unspecified) 1

Another compound to check: "S=C(NCCCc1c[nH]cn1)NCCCN(Cc1ccc(Cl)c(Cl)c1)c1ccc(Br)cn1" 1

Another compound to check: "COc1cc(N2CCN(C)CC2)ccc1Nc1ncc2c(n1)N(C)c1ccccc1C(=O)N2C" 1

Another compound to check: "O=C(Nc1ccc(-c2ccnc(Nc3ccc(N4CCOCC4)cc3)n2)cc1)[C@@H]1CCCN1" 0

Another compound to check: "Cc1ccc(C(=O)Nc2cccc(C(F)(F)F)c2)cc1Nc1nc(-c2cccnc2)nc2c1cnn2C" 1

Another compound to check: "O=C1NC(=O)C(c2cnc3ccccn23)=C1c1cn2c3c(cc(F)cc13)CN(C(=O)N1CCCCC1)CC2" 1

Another compound to check: CN1CCC(=C2c3ccccc3CC(=O)c3sccc32)CC1.O=C(O)/C=C/C(=O)O [KETOTIFEN FUMARATE] 1

Another compound to check: "O=C(Nc1ccc(-n2nc(-c3cccnc3)cc2C(F)(F)F)cn1)c1ccc(-c2ccccc2)c(F)c1" 1

Another compound to check: "CCOc1cc(C(=O)N2CCC(N3CCN(C)CC3)CC2)ccc1Nc1ncc2c(n1)N(C1CCCC1)c1ccccc1C(=O)N2C" 1

###

system: HEK-293T; experiment: Incucyte cell viability with HEK293T; type: toxicity, cell-based; details: human, 0 h, 10 µM, compound concentration 10 uM, replicate number 1, timepoint 0 hours; also: filed as whole numbers so only -1 and 0 and 1 occur
REPORTED_ENDPOINT: Growth Rate

Example results:
Would you kindly share the measured Growth Rate for Cn1nc(C(=O)NCc2ccc(C(=O)O)cc2)cc1-c1ccc2[nH]ccc2c1 [BI 4395] ? 0

Another compound to check: "O=c1ccn([C@@H]2O[C@H](COP(=O)([O-])OP(=O)([O-])O)[C@@H](O)[C@H]2O)c(=O)[nH]1.[Na+].[Na+]" 1

Another compound to check: CC(=O)C1=C(C)N(c2cccc(C(F)(F)F)c2)C(=O)N[C@@H]1c1ccc(C#N)nc1 [BAY-678] 0

---
Would you kindly share the measured Growth Rate for "CCCCCNC(=O)NS(=O)(=O)c1cc([N+](=O)[O-])ccc1NC1CCCCC1" ? 1

###

Collected Growth Rate values appear next to each entry.
test system: HEK-293T; assay: Incucyte cell viability with HEK293T; format: toxicity, cell-based; settings: human, 18 h, 10 µM, compound concentration 10 uM, replicate number 1, timepoint 18 hours; also: filed as whole numbers so only -1 and 0 and 1 occur
Just the number, please.

Write down the reported Growth Rate of "CCOc1cc2ncc(C#N)c(Nc3ccc(OCc4ccccn4)c(Cl)c3)c2cc1NC(=O)/C=C/CN(C)C" , test system: HEK-293T. 0

---
Write down the reported Growth Rate of "COc1cc(N2CCN(C)CC2)ccc1Nc1ncc2c(n1)N(C)c1ccccc1C(=O)N2C" , test system: HEK-293T. 1

###

tested on: HEK-293T; test: Multiplex assay against HEK293T; format: toxicity, cell-based; conditions: human, 24 h, 1 µM, compound concentration 1 uM, replicate 2
REPORTED_ENDPOINT: Population Membrane Permeable-Phenotype (%)
# include the unit after the value

Would you kindly share the measured Population Membrane Permeable-Phenotype (%) for "Cn1nc(C(F)(F)F)cc1-c1cnc(N2CCc3cc(S(=O)(=O)Nc4c(F)cc(Cl)cc4F)cc(N4CCCC4=O)c32)nc1" ? 13%

Another compound to check: "Cc1ccc(C(=O)Nc2cccc(C(F)(F)F)c2)cc1Nc1nc(-c2cccnc2)nc2c1cnn2C" 11%

Another compound to check: "CCn1cc(-c2ccnc3[nH]c(-c4cccc(CN(C)C)c4)cc23)c(-c2ccc(NC(=O)N(C)C)cc2)n1" 12%

---
Would you kindly share the measured Population Membrane Permeable-Phenotype (%) for "C=C1/C(=C\C=C2/CCC[C@]3(C)[C@@H]([C@H](C)/C=C/[C@H](C)C(C)C)CC[C@@H]23)C[C@@H](O)C[C@@H]1O" ? 9%

Another compound to check: "Cc1cn(-c2cc(NC(=O)c3ccc(C)c(Nc4nccc(-c5cccnc5)n4)c3)cc(C(F)(F)F)c2)cn1" 8%

Another compound to check: "CCN1CCN(c2ccc(Nc3cc(N(C)C(=O)Nc4c(Cl)c(OC)cc(OC)c4Cl)ncn3)cc2)CC1" 9%

Another compound to check: "CCc1cccc(CC)c1NC(=O)c1nn(C)c2c1CCc1cnc(Nc3ccc(N4CCN(C)CC4)cc3OC)nc1-2" 3%

###

test system: Fibroblast; test: Multiplex assay against human fibroblast; format: toxicity, cell-based; settings: 12 h, 10 µM, compound concentration 10 uM, replicate 1
Collected Population Apoptotic (%) values appear next to each entry.
The response must be a number in % with no trailing unit.

Example results:
Would you kindly share the measured Population Apoptotic (%) for "Cl.O=c1c2cccn2c2ccccc2n1CCCN1CCC(c2ccc(Cl)cc2)CC1" ? 48

Another compound to check: "CCCS(=O)(=O)c1nc(NC2CC2)cc(-c2ccc3c(ccn3C3CC(C)(C)NC(C)(C)C3)c2)n1" 71

Another compound to check: COc1cc2ncnc(Nc3ccc(F)c(Cl)c3)c2cc1NC(=O)/C=C/CN1CCCCC1 [DACOMITINIB ANHYDROUS] 58

Shifting focus to the compound that follows.
Would you kindly share the measured Population Apoptotic (%) for "CCn1c(=O)c(-c2ccc(-c3cncs3)cc2Cl)cc2cnc(Nc3ccc(N4CCN(C)CC4)cc3)nc21" ? 58
